Entry source: patent US20140357844A1

- STUDY_TARGET: T1, monovalent human Trop2-ECD antigen (human, UniProt P09758 27-274)
- T1 construct: also called human Trop2-ECD (Extracellular Domain)
- T1 sequence: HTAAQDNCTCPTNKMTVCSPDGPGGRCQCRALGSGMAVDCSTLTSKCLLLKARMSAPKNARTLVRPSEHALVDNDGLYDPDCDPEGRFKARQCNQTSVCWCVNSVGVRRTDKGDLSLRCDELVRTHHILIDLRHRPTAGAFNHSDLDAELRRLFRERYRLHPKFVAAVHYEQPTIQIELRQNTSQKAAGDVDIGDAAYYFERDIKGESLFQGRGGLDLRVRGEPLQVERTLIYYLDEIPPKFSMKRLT
- ASSAY_REMARKS: SPR (ProteOn XPR36), amine-coupled Fab, monovalent human Trop2-ECD as analyte, 25 C;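 further: GLC sensor chip, 3 min association then 15 min buffer dissociation, kinetics fit with a 1:1 Langmuir model, buffer of 10 mM sodium phosphate with 150 mM NaCl and 0.05% Tween-20 at pH 7.4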
PROPERTY_MEASURED: Kd

- BINDER: "h7E6_SVG Fab (Fab, V domains shown, also called DG (h7E6_SVG)) VH: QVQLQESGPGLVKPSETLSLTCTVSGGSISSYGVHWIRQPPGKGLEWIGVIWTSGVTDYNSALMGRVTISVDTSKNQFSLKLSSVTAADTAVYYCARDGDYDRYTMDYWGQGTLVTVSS VL: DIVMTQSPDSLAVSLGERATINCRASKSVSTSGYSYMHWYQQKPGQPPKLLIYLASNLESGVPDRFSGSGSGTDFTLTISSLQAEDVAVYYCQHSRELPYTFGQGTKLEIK"
  PROPERTY_MEASURED: "Kd"
  RESULT: "0.0041 µM"
- BINDER: "h7E6_SVG28 Fab (Fab, V domains shown, also called DL (h7E6_SVG28)) VH: QVQLQESGPGLVKPSETLSLTCTVSGGSISSYGVHWIRQPPGKGLEWIGVIWTSGVTDYNSALMGRVTISVDTSKNQFSLKLSSVTAADTAVYYCARDLDYDRYTMDYWGQGTLVTVSS VL: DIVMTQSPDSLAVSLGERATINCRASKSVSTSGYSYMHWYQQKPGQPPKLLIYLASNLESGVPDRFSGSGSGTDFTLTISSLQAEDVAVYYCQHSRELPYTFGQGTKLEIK"
  PROPERTY_MEASURED: "Kd"
  RESULT: "> 0.075 µM"
- BINDER: "h7E6_SVG19 Fab (Fab, V domains shown, also called DS (h7E6_SVG19)) VH: QVQLQESGPGLVKPSETLSLTCTVSGGSISSYGVHWIRQPPGKGLEWIGVIWTSGVTDYNSALMGRVTISVDTSKNQFSLKLSSVTAADTAVYYCARDSDYDRYTMDYWGQGTLVTVSS VL: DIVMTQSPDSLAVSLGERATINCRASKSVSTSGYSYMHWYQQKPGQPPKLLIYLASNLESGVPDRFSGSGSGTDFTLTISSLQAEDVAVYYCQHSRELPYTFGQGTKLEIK"
  PROPERTY_MEASURED: "Kd"
  RESULT: "> 0.075 µM"
- BINDER: "h7E6_SVG22 Fab (Fab, V domains shown, also called DA (h7E6_SVG22)) VH: QVQLQESGPGLVKPSETLSLTCTVSGGSISSYGVHWIRQPPGKGLEWIGVIWTSGVTDYNSALMGRVTISVDTSKNQFSLKLSSVTAADTAVYYCARDADYDRYTMDYWGQGTLVTVSS VL: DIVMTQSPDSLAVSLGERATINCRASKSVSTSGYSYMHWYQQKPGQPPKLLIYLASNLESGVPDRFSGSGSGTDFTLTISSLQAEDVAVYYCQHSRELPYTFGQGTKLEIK"
  PROPERTY_MEASURED: "Kd"
  RESULT: "> 0.075 µM"
